Taken from ChEMBL document CHEMBL3596119.

Listed below: pKi values for each entry.
Assay: Displacement of [3H]DTG from sigma2 receptor in rat liver membrane homogenates
Assay type: cell membranes
When answering, recall that pKi equals minus log10 of the concentration in mol/L, and write that number alone.

A selection of reference data follows.
Compound	pKi
O=C(c1ccc(F)cc1)C1CCN([C@@H]2Cc3c(O)cccc3C[C@H]2O)CC1	5.73
O[C@@H]1CCCC[C@H]1N1CCC(c2ccccc2)CC1	6.46
O=C(c1ccc(F)cc1)C1CCN([C@@H]2Cc3cccc(OCCF)c3C[C@H]2O)CC1 (racemic)	5.15
O=C(c1ccc(F)cc1)C1CCN(C2Cc3c(cccc3OCCF)CC2O)CC1 (single isomer, unassigned; (+))	5.11

Now look at this one.
I have this compound here, O=C(c1ccc(OCCF)cc1)C1CCN([C@@H]2Cc3ccccc3C[C@H]2O)CC1 , and I need its recorded pKi.
5.72
